B1: PBXIP1 (parent)
chain: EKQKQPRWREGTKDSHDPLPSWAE

Variants of: B1
Assay: protein stability index of a GFP-peptide fusion (GPS, HEK-293T) (PSI 1-6); higher = more stable;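 further: lentivirally expressed fusions sorted by FACS into six bins by GFP to DsRed ratio, PSI derived from sequencing read proportions per bin multiplied by bin number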
Settings: c terminus: a fixed tail appended
Assign protein stability index to each entry below.

Here are 4 variants together with their reported answers.
K13Q :: 1.29
W22N :: 5.48
R7D :: 2.47
A23E :: 2.39

Give protein stability index for all variants that follow.
1. P20Y
2. A23F
3. E24I
4. P18Q
5. W8N

1. 1.75
2. 3.56
3. 3.06
4. 1.96
5. 3.03

Give protein stability index for all variants that follow.
1. E1C
2. D14F
3. S21D
4. R7C
5. D14Y
6. P20H
7. K2F

1: 2.08; 2: 1.46; 3: 4.6; 4: 5.92; 5: 2.35; 6: 2.22; 7: 1.85

Give protein stability index for all variants that follow.
1. A23S
2. W22T
3. T12H
4. A23K
5. K2E

[2.01, 5.07, 2.89, 4.51, 3.03]

The values you see were collected from the supplement of paper PMC10567573.
